Attribute: melting point

                                   compound   observed_value
0  CCCCCCCCCCCCS(=O)(=O)c1cc2c(cc1S(=O)(=O)CCCCCCCCCCCC)C(=O)c1c(c(O)c3ccccc3c1O)C2=O    173 to 175 °C
1                    CNC(=S)NCCCSc1nc(C)co1      73 to 74 °C
2  C[C@]1(COc2ccc(N3CCC(CCOCc4ccc(OC(F)(F)F)cc4)CC3)cc2)Cn2cc([N+](=O)[O-])nc2O1    205 to 207 °C
3                       COC(=O)c1ccc(C#N)s1      76 to 78 °C
4            CCOC(OCC)c1cccc2c1Sc1ccccc1N2C  44.6 to 46.2 °C

## Input What value of melting point has been recorded for this entry: CC(=O)Nc1nc2c(Oc3cc(N4CCN(C(C)c5ccc(F)cc5)CC4)ncn3)cccc2o1 (stereo not given)
## Output 200 °C

## Input // next record NC(=O)c1cc2cc(OCC(O)CCl)ccc2o1 (stereo not given)
## Output 136 to 138 °C

## Input Moving on to O=C1Cc2cc(Cl)cc(Oc3ccccc3Cl)c2N1
## Output 196 to 198 °C

## Input Check OC(CCCl)COc1ccc(-c2ccccc2)cc1 (stereo not given) too.
## Output 123 to 124 °C

## Input Do the same for CCOCCc1c(N=[N+]=[N-])nc(NC(=O)NC)nc1-c1ccccc1 please
## Output 128 to 130 °C

Data origin: a melting point compilation (Tetko et al.; mined from patent text by program, amines drawn as free bases though some values may be those of a salt)
